assay_overview: modulators of HCV replicon luciferase signal, primary screen, HCV replication inhibitor project, Huh7 cells, luciferase reporter (AID 1109);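 note: huh7 hepatoma cells harbouring a luciferase neomycin HCV replicon reporter; luciferase luminescence as measure of HCV replicon replication; test concentration not given here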
run_parameters: 48 h, higher = more signal

| compound | z-score |
| --- | --- |
| CCOC(=O)C[C@H]1[C@H](OC(=O)c2ccc(-c3ccccc3)cc2)[C@@H](NC(=O)CC(C)C)c2cc(OCCCO)ccc2N1C(=O)Cc1ccc(OC)cc1 | -1.84 |
| O=C1NC(=O)C2C1C=CC(C(O)c1ccc(F)cc1)N2Nc1ccccn1 (configuration not stated) | 0.305 |
| CN(C)CCCC[C@@H]1NC(=O)[C@@H]2C[C@H](C(=O)NCCCCCCNC(=O)CS)[C@H](c3cccc(OCCO)c3)N2C1=O | -0.149 |
| CC(C)(C)N1CC=CC23O[C@@H]4/C=C\CCCOC(=O)C4[C@H]2C(=O)N(CCCCCCO)[C@@H]3C1=O (some centres not stated) | -0.762 |
| CCCCC(=C=CC[C@@H](O)c1cccc(OCCO)c1)CCO | -0.165 |
| COCCOC(=O)N1C(=O)[C@@]2(c3cc(C#Cc4ccc(OC)cc4)ccc31)[C@H](C(=O)Nc1nc3ccccc3s1)[C@H]1C(=O)O[C@H](c3ccccc3)[C@H](c3ccccc3)N1[C@@H]2c1ccccc1OCCO | -1.43 |
| C=CC[C@]1(C(=O)NCc2ccccc2)COC(c2ccc(OCCCO)cc2)=N1 | -1.65 |

###

target_system: Alpha-bungarotoxin (Bungarus multicinctus) (UniProt P60615)
Sequence (P60615 whole entry, looked up): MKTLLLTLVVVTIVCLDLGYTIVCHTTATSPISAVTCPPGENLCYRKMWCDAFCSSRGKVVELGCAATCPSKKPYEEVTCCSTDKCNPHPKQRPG
assay_overview: alpha-bungarotoxin binders on microarray, profiling panel, artefact control for SMM control protein annotation, biochemical, small-molecule microarray, Alexa647 label, 635/667 nm fluorescence (AID 1117)
run_parameters: alpha-BTX-A647 binding fluorescence, higher = more signal
measured_parameter: composite z-score

| compound | target_system | data_value |
| --- | --- | --- |
| CCOC(=O)C1=CC[C@@H](c2ccccc2)N(S(=O)(=O)C[Si](C)(C)C)[C@H]1c1ccccc1 | Alpha-bungarotoxin (Bungarus multicinctus) (UniProt P60615) | 1.02 |
| NC(=O)[C@@]1(CCS(=O)(=O)c2ccccc2)COC(c2ccc(OCCCO)cc2)=N1 | Alpha-bungarotoxin (Bungarus multicinctus) (UniProt P60615) | 0.768 |
| COCCOC(=O)N1C(=O)[C@@]2(c3cc(C#CC4(O)CCCCCC4)ccc31)[C@H](c1ccccc1OCCO)N1[C@H](c3ccccc3)[C@H](c3ccccc3)OC(=O)[C@H]1[C@@H]2C(=O)N1CCCCCCC1 | Alpha-bungarotoxin (Bungarus multicinctus) (UniProt P60615) | 1.49 |
| C=CCC(OC(C)=O)[C@@H]1[C@@H](N(Cc2ccc(-c3cccc(C(F)(F)F)c3)o2)C(=O)Cc2ccc(OC)cc2)c2cc(OCCCO)ccc2N1C(=O)c1ccc2ccccc2n1 (some centres not stated) | Alpha-bungarotoxin (Bungarus multicinctus) (UniProt P60615) | -0.362 |
| CC(C)C[C@H]1NC(=O)[C@@H](C)NC(=O)[C@@]23C(=O)N[C@@H](Cc4ccccc4)C2[C@H](C)[C@@]2(C)O[C@H]2C3/C=C/C/C=C\CNC1=O (some centres not stated) | Alpha-bungarotoxin (Bungarus multicinctus) (UniProt P60615) | -0.133 |
| CC(C)=CCN(C(=O)C#Cc1ccccc1)[C@H](CO)c1ccccc1 | Alpha-bungarotoxin (Bungarus multicinctus) (UniProt P60615) | 0.14 |
| CC1CC/C=C\[C@H]2OC34C=CCN(c5ccc(Cl)cc5)C(=O)[C@H]3N(CCCO)C(=O)[C@]4(C)C2C(=O)O1 (some centres not stated) | Alpha-bungarotoxin (Bungarus multicinctus) (UniProt P60615) | -0.859 |

###

assay_overview: small-molecule microarray binders of probe aXIP, primary screen, biochemical, NeuroSMM set, 635/667 nm fluorescence (AID 1119);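 note: probe is the protein aXip251-270 applied at 1 µg/mL to compound-printed slides; binding of probe to printed compounds measured as 667 nm fluorescence plus signal to noise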
run_parameters: higher = more signal, called active from +8 up or from −8 down
The compounds listed here are annotated with their composite Z-score.
measured_parameter: composite Z-score

| compound | measured_parameter | data_value |
| --- | --- | --- |
| CO[C@H]1O[C@H](CO)[C@@H](OC(=O)Nc2ccc(C(F)(F)F)cc2)[C@H](OC(=O)Nc2ccccc2-c2ccccc2)[C@@H]1OC(=O)Nc1ccccc1-c1ccccc1 | composite Z-score | 0.0336 |
| [N-]=[N+]=NCc1ccccc1[C@H]1OC(c2ccc(OCCCO)cc2)=N[C@@]1(Cc1ccccc1)C(=O)N1CCOCC1 | composite Z-score | 0.475 |
| CCCCN1CC=CC23O[C@@H]4C=CCOC(=O)[C@@H]4[C@H]2C(=O)N(CCO)[C@@H]3C1=O (stereo partly drawn) | composite Z-score | -0.483 |
| COCC(=C=CC[C@@H](O)c1cccc(OCCO)c1)C[C@@H](O)COCc1ccccc1 | composite Z-score | -1.85 |
| CCCC[C@H]1OB(O)C[C@H]2C1=C(COC)C[C@H]1C(=O)C=CC(=O)[C@H]12 | composite Z-score | 0.727 |
| COC(=O)[C@]1(CO)N=C(c2ccc(OCCCO)cc2)O[C@@H]1c1ccccc1CN=[N+]=[N-] | composite Z-score | 0.277 |
| CCOC(=O)C1=CC[C@@H](c2ccc(F)cc2)N(S(=O)(=O)c2ccc(C)cc2)[C@H]1c1ccc([N+](=O)[O-])cc1 | composite Z-score | 0.348 |
| CCCCC(O)C1C=CC2C(=O)N(C)C(=O)C2N1Nc1ccccc1 (stereo not drawn) | composite Z-score | 0.267 |

###

target_system: E3 ubiquitin-protein ligase XIAP (Homo sapiens) (UniProt P98170)
Sequence (P98170 whole entry, looked up): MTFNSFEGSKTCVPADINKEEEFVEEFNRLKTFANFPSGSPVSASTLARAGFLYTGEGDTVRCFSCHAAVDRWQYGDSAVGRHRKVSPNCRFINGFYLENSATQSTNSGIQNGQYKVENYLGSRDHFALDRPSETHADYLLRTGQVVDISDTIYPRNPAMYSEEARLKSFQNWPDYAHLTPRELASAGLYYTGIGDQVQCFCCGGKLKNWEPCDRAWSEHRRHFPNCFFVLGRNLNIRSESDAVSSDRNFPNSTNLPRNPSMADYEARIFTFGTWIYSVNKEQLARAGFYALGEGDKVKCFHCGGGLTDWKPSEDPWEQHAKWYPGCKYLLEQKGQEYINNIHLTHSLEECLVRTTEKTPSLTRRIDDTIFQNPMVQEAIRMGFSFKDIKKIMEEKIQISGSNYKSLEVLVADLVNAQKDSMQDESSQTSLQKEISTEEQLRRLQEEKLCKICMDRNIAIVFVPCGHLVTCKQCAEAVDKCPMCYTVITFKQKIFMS
assay_overview: XIAP binders, primary screen, biophysical, small-molecule microarray, fluorescence 635 nm (AID 1181);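 note: score merges 667 nm emission and signal to noise over triplicate slides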
run_parameters: small-molecule microarray binding, higher = more signal
The molecules listed here are annotated with their composite z-score.

| molecule | target_system | composite z-score |
| --- | --- | --- |
| CCOC(=O)C1=CC[C@@H](c2ccccc2)N(S(=O)(=O)c2ccc(C)cc2)[C@H]1C#N | E3 ubiquitin-protein ligase XIAP (Homo sapiens) (UniProt P98170) | 0.129 |
| C=CCN1C(=O)[C@]2(O[C@H](CCn3cc([C@H](O)c4ccccc4)nn3)[C@@H]([Si](C)(C)c3ccc(OC)cc3)[C@@H]2C)c2cc(N3C(=O)c4cccc5cccc3c45)ccc21 | E3 ubiquitin-protein ligase XIAP (Homo sapiens) (UniProt P98170) | 0.0435 |
| O=C1C2C=CC(C(O)c3cccs3)N(Nc3ccccc3)C2C(=O)N1c1ccccc1 (centres undefined) | E3 ubiquitin-protein ligase XIAP (Homo sapiens) (UniProt P98170) | 0.0537 |
| CCOC(=O)C1=CCC(c2cc3ccccc3[nH]2)N(S(=O)(=O)c2ccccc2[N+](=O)[O-])C1 (centres undefined) | E3 ubiquitin-protein ligase XIAP (Homo sapiens) (UniProt P98170) | -0.014 |

###

target_system: Carbonic anhydrase 2 (Homo sapiens)
assay_overview: CAII small-molecule binders, profiling panel, biochemical, small-molecule microarray, Alexa647-labelled CAII (AID 1122)
run_parameters: CAII-A647 binding fluorescence, higher = more signal
The molecules listed here are annotated with their composite z-score.

| molecule | target_system | composite z-score |
| --- | --- | --- |
| O=C1O[C@@H](c2ccccc2)[C@@H](c2ccccc2)N2[C@@H](c3ccc(O)cc3)[C@]3(C(=O)Nc4ccc(C#CC5=CCCCC5)cc43)[C@@H](C(=O)N3CCCCCCC3)[C@H]12 | Carbonic anhydrase 2 (Homo sapiens) | 0.589 |
| COCCCN1C(=O)[C@@]2(Cc3ccccc31)c1ccccc1C(=O)N(Cc1ccccc1OC)[C@H]2c1ccc(CO)cc1 | Carbonic anhydrase 2 (Homo sapiens) | 0.799 |
| COC(=O)[C@@]1(Cc2ccc(OC)cc2)[C@H]2c3cc(C(=O)N4CCCC4)n(CCc4ccc(OC)c(Br)c4)c3C[C@H]2CN1C(=O)c1ccccc1 | Carbonic anhydrase 2 (Homo sapiens) | 0.895 |
| COCCOC(=O)N1C(=O)[C@@]2(c3cc(C#CC4=CCCCC4)ccc31)[C@H](C(=O)N1CCN(c3ncccn3)CC1)[C@H]1C(=O)O[C@H](c3ccccc3)[C@H](c3ccccc3)N1[C@@H]2c1ccccc1OCCO | Carbonic anhydrase 2 (Homo sapiens) | 0.169 |
| COCCCNC(=O)[C@@]1(Sc2ccc(C)cc2)CC(=O)N(C2CCCCC2)[C@@H]1c1ccc(CO)cc1I | Carbonic anhydrase 2 (Homo sapiens) | 0.481 |
| C=CCC(OC(C)=O)[C@@H]1[C@@H](N(Cc2cc3ccccc3o2)C(=O)Cc2ccc(OC)cc2)c2cc(OCCCO)ccc2N1C(=O)Cc1ccc2ccccc2c1 (stereo partly specified) | Carbonic anhydrase 2 (Homo sapiens) | -0.061 |

###

assay_overview: small-molecule microarray binders of probe aEGFR, primary screen, biochemical, biotinylated probe, 635/667 nm fluorescence (AID 1097);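 note: probe is a biotinylated anti-EGFR antibody binding compounds printed on slides; score combines fluorescence near 667 nm and signal to noise of each spot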
run_parameters: higher = more signal
measured_parameter: composite z-score

| compound | measured_parameter | data_value |
| --- | --- | --- |
| COCCOC(=O)N1C(=O)[C@@]2(c3cc(C#CCCO)ccc31)[C@H](c1ccc(O)cc1)N1[C@H](c3ccccc3)[C@H](c3ccccc3)OC(=O)[C@H]1[C@@H]2C(=O)N1CCc2cc(OC)c(OC)cc2C1 | composite z-score | 0.122 |
| CCOC(=O)C[C@H]1[C@H](OC(=O)c2ccc(C(=O)c3ccccc3)cc2)[C@@H](NC(=O)c2ccc3ccccc3c2)c2cc(OCCCO)ccc2N1C(=O)c1ccc2ccccc2n1 | composite z-score | 0.111 |
| COc1ccc([Si](C)(C)[C@@H]2[C@@H](CC(=O)N(CCO)Cc3ccccc3)O[C@]3(C(=O)N(Cc4ccc(N5CCC5=O)cc4)c4ccccc43)[C@H]2C)cc1 | composite z-score | -0.199 |
| C=C(COC)/C(=C/C[C@H](OC(=O)c1ccncc1)c1cccc(OCCO)c1)c1cnc2ccccc2c1 | composite z-score | -0.0025 |
| NC(=O)N1C(=O)C2C(C1=O)C1C=C(CCCO)C2C(c2ccc(CN3CCCC3)cc2)N1Cc1cccc(OC(F)(F)F)c1 (centres undefined) | composite z-score | -0.0286 |
| N[C@@H](Cc1ccccc1)Cn1cc(C2(O)CCCCC2)nn1 | composite z-score | -0.14 |
| COC(=O)C1=CC(CCCO)=CC(C2CC2)N(Cc2cccc(OC(F)(F)F)c2)C=C1C(=O)OC (centres undefined) | composite z-score | -0.0353 |
| CCC[C@@H]1C=C(C(=O)OCC)[C@H](c2ccccc2)N1S(=O)(=O)c1ccc(C)cc1 | composite z-score | 0.21 |
| COCCOC(=O)N1C(=O)[C@@]2(c3cc(C#CC4=CCCCC4)ccc31)[C@H](C(=O)N1CCN(c3ncccn3)CC1)[C@H]1C(=O)O[C@H](c3ccccc3)[C@H](c3ccccc3)N1[C@@H]2c1ccccc1OCCO | composite z-score | -0.0749 |
| O=C1C2C=CC(C(O)c3ccc([N+](=O)[O-])cc3)N(Nc3ccccc3)C2C(=O)N1c1ccccc1 (centres undefined) | composite z-score | -0.0509 |
| CC(C)(C)N1CC=CC23O[C@@H]4/C=C\CCCOC(=O)C4[C@H]2C(=O)N(CCCCCCO)[C@@H]3C1=O (some centres undefined) | composite z-score | 0.252 |
| COc1ccc(C#Cc2ccc3c(c2)[C@]2(C(=O)N3)[C@H](C(=O)Nc3nc4ccccc4s3)[C@H]3C(=O)O[C@H](c4ccccc4)[C@H](c4ccccc4)N3[C@@H]2c2ccc(OCCO)cc2)cc1 | composite z-score | 0.123 |
| CN1C(=O)C2C(C1=O)C1C=C(c3ccc(CO)cc3)C2C(c2cccs2)N1C (centres undefined) | composite z-score | 0.637 |
| CCOC(=O)C[C@H]1[C@H](OC(=O)c2ccc(-c3ccccc3)cc2)[C@@H](NC(=O)c2ccc3ccccc3c2)c2cc(OCCCO)ccc2N1C(=O)c1ccccc1 | composite z-score | 0.0914 |
